pIC50 values recorded for Coagulation factor X, Homo sapiens (UniProt P00742)
pIC50: −log10 of the molar value.

smiles.str | measured.result
CC(=O)N[C@H]1C/C=C/COc2ccc(cc2)C[C@@H](C(=O)N[C@@H](CCCNC(=N)N)C(=O)c2nc3ccccc3s2)NC(=O)[C@H](CC(C)C)NC1=O | < 4.70
CC(=O)N[C@H]1Cc2ccc(cc2)OC/C=C\CNC(=O)C[C@@H](C(=O)N[C@@H](CCCNC(=N)N)C(=O)c2nc3ccccc3s2)NC(=O)[C@H](CC(C)C)NC1=O | < 4.70
CC(=O)N[C@H]1Cc2ccc(cc2)Oc2cccc(c2)C[C@@H](C(=O)N[C@@H](CCCNC(=N)N)C(=O)c2nc3ccccc3s2)NC(=O)[C@H](CC(C)C)NC1=O | 4.89
CC(=O)N[C@H]1Cc2ccc(cc2)OC/C=C/C[C@@H](C(=O)N[C@@H](CCCNC(=N)N)C(=O)c2nc3ccccc3s2)NC(=O)[C@H](CC(C)C)NC1=O | < 4.70

Okay, next one:
Summary for this compound, `CC(=O)N[C@H]1Cc2ccc(cc2)OC/C=C\CNC(=O)CC[C@@H](C(=O)N[C@@H](CCCNC(=N)N)C(=O)c2nc3ccccc3s2)NC(=O)[C@H](CC(C)C)NC1=O` : pIC50 is < 4.70

---

Recorded pIC50 for the following molecules
measured.target: Suppressor of tumorigenicity 14 protein (Homo sapiens, UniProt Q9Y5Y6)
protocol.notes: Inhibition of N-terminal Met/6His tagged human recombinant matriptase catalytic domain (Gly596 to Val855 residues) using Boc-QAR-AMC as substrate preincubated for 30 mins followed by substrate addition and measured by fluorescence based analysis
Conceptually, pIC50 converts a concentration in mol/L into minus its log10.

Field: example entries. Status: answers known.
smiles.str | measured.result
CC(=O)N[C@H]1Cc2ccc(cc2)Oc2ccc(cc2)C[C@@H](C(=O)N[C@@H](CCCNC(=N)N)C(=O)c2nc3ccccc3s2)NC(=O)[C@H](CC(C)C)NC1=O | 6.74
CC(=O)N[C@H]1C/C=C/COc2ccc(cc2)C[C@@H](C(=O)N[C@@H](CCCNC(=N)N)C(=O)c2nc3ccccc3s2)NC(=O)[C@H](CC(C)C)NC1=O | 7.85
CC(=O)N[C@H]1Cc2ccc(cc2)OC/C=C/C[C@@H](C(=O)N[C@@H](CCCNC(=N)N)C(=O)c2nc3ccccc3s2)NC(=O)[C@H](CC(C)C)NC1=O | 8.47

Then there is this molecule:
Measured pIC50 for this entry `CC(=O)N[C@H]1Cc2ccc(cc2)OC/C=C\CNC(=O)C[C@@H](C(=O)N[C@@H](CCCNC(=N)N)C(=O)c2nc3ccccc3s2)NC(=O)[C@H](CC(C)C)NC1=O` on Suppressor of tumorigenicity 14 protein (Homo sapiens, UniProt Q9Y5Y6): 7.27

---

protocol.notes: Metabolic stability in mouse plasma assessed as compound remaining measured at 2 hrs
Format: ADME, cell-free
study.conditions: read-out: Stability
In this section, each of the molecules is paired with its reported remaining at 2 h.
Write the value in % as a bare number.

Here are 2 molecules together with their reported answers.
smiles.str | measured.result
CC(=O)N[C@H]1Cc2ccc(cc2)OCCCC[C@@H](C(=O)N[C@@H](CCCNC(=N)N)C(=O)c2nc3ccccc3s2)NC(=O)[C@H](CC(C)C)NC1=O | 98
CC(=O)N[C@H]1Cc2ccc(cc2)OC/C=C\CNC(=O)C[C@@H](C(=O)N[C@@H](CCCNC(=N)N)C(=O)c2nc3ccccc3s2)NC(=O)[C@H](CC(C)C)NC1=O | 95

Could you now consider this next molecule?
Field remaining at 2 h (entry `CC(=O)N[C@H]1Cc2ccc(cc2)OCCCC[C@@H](C(=O)N[C@@H](CCCNC(=N)N)C(=O)c2nc3ccccc3s2)NC(=O)[C@@H](Cc2c[nH]c3ccccc23)NC1=O` ) reads 100
